# protocol-description: Plasma Half-life
# condition: BALB/c, mouse, pH 7.4
readout-type: half-life at 50 µM

compound: CCN(CC)C(=O)[C@H](C)[C@@H]1N=C(c2ccc(Cl)cc2)c2cc(OC)ccc2-n2c(C)nnc21 (relative stereo) [Compound 19]
readout-type: half-life at 50 µM
result: > 3 h
//
compound: C=CC[C@@H](C(=O)NCC)[C@@H]1N=C(c2ccc(Cl)cc2)c2cc(OC)ccc2-n2c(C)nnc21 (relative stereo) [Compound 18]
readout-type: half-life at 50 µM
result: > 3 h
//
compound: C=CC[C@@H](C(=O)OC(C)(C)C)[C@@H]1N=C(c2ccc(Cl)cc2)c2ccc(OC)cc2-n2c(C)nnc21 [Compound 26]
readout-type: half-life at 50 µM
result: > 3 h
